- experiment: activity coefficient (dimensionless); of the first substance listed, at infinite dilution; xn = mol fraction of the nth substance listed
- measurement.parameters: 343.15 K; Liquid; Chromatography; x1 = 0
Hi there, I'd appreciate the recorded activity coefficient for every entry that follows.

Returns the measured activity coefficient for the input compound. Input: CC(C)CO [2-methyl-1-propanol] + CCCCCCCCn1cc[n+](COCCCOC[n+]2ccn(CCCCCCCC)c2C)c1C.O=S(=O)([N-]S(=O)(=O)C(F)(F)F)C(F)(F)F.O=S(=O)([N-]S(=O)(=O)C(F)(F)F)C(F)(F)F
0.67

Returns the measured activity coefficient for the input compound. Input: CCCCCCCC [octane] + CN(C)c1cc[n+](COCCCOC[n+]2ccc(N(C)C)cc2)cc1.O=S(=O)([N-]S(=O)(=O)C(F)(F)F)C(F)(F)F.O=S(=O)([N-]S(=O)(=O)C(F)(F)F)C(F)(F)F
30

I am curious: what activity coefficient value has been reported for c1ccsc1 [thiophene] + CCCOC[n+]1ccn(Cc2ccccc2)c1.F[B-](F)(F)F ?
1.25
